system: T1, GIP receptor (GIPR) (UniProt P48546 22-466, limits assumed)
T1 sequence (looked up): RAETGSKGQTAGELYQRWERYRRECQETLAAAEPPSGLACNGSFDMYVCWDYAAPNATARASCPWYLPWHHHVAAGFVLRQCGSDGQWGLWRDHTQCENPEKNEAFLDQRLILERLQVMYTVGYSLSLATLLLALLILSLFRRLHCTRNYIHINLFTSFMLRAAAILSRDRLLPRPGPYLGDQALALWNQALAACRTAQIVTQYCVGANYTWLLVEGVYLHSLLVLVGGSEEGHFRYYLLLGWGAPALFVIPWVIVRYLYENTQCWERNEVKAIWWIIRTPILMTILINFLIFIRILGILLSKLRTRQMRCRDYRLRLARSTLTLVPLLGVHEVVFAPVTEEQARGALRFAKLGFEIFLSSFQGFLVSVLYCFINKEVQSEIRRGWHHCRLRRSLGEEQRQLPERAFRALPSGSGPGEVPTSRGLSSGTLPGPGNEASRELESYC
experimentNotes: cell-based or functional assay
Bridge positions count the residues as written; N and C are the ends. Square brackets hold non-standard residues; d marks the D form. Ends that are not written are not given here. stapled body chem0208 = not defined here; αMeF = C[C@](N)(Cc1ccccc1)C(=O)O; αMeL = CC(C)C[C@](C)(N)C(=O)O; Aib = CC(C)(N)C(=O)O
# Lookup of reported GIP-1 EC50 (nM); cAMP, agonistic activity keyed by entry
Quick note: give the figure in nM, leave out the unit.

Solved entries (count: 2):
{"binder": "Y[Aib]QGTFTSDYSI[αMeL]KDKKAQ[Aib]AFIEYLLKGGPSSGAPPPS-NH2 (linker 14-17 via Ida, Lys, Lys, γGlu, C20 diacid; also: further groups not given here) [Example 41]", "quantitativeResult": 0.0003}
{"binder": "Y[Aib]QGT[αMeF]TSDYSI[αMeL]KDKKAQ[Aib]AFIEYLLKGGPSSGAPPPS-NH2 (bridge 14-17; not fully specified (bridges); also: stapled body (lipidated) structure only in drawing chem0260) [Example 51]", "quantitativeResult": 0.0002}

IN: Provide only the value of recorded GIP-1 EC50 (nM); cAMP, agonistic activity for Y[Aib]QGTFTSDYSI[αMeL]LDKKAQ[Aib]KFIEFLLKGGPSSGAPPPS-NH2 (linker 21-28 via Ida, Lys, Lys, γGlu, C20 diacid; also: further groups not given here) [Example 26]
OUT: 0.0005

IN: Provide only the value of recorded GIP-1 EC50 (nM); cAMP, agonistic activity for Y[Aib]QGTFTSDYSI[αMeL]LDKKAQ[Aib]EFIEYLLEGGPSSGAPPPS-NH2 (linker 17-21 via stapled body chem0208; reading uncertain; also: further groups not given here) [Example 10]
OUT: 0.0003

IN: Provide only the value of recorded GIP-1 EC50 (nM); cAMP, agonistic activity for Y[Aib]QGTFTSDYSI[αMeL]LDKKAQ[Aib]KFIEYLLEGGPSSGAPPPS-NH2 (bridge 17-21; also: stapled body between K17 and K21 is given only as a drawing, not in text) [Example 6]
OUT: 0.0005

IN: Provide only the value of recorded GIP-1 EC50 (nM); cAMP, agonistic activity for Y[Aib]QGTFTSDYSI[αMeL]LDKKAQ[Aib]AFIEKLLEGGPSSGAPPPS-NH2 (linker 25-28 via Lys, AEEA, γGlu, C20 diacid) [Example 3]
OUT: 0.003

IN: Provide only the value of recorded GIP-1 EC50 (nM); cAMP, agonistic activity for Y[Aib]QGTFTSDYSI[αMeL]LDKKAQ[Aib]AFIKYLLEGGPSSGAPPPS-NH2 (linker 17-24 via Ida, Lys, Lys, γGlu, C20 diacid) [Example 18]
OUT: 0.0004
